Cited source: patent US20260007758A1

So I've got a bunch of molecules here, and I need their pEC50 values.
TARGET_OF_ASSAY: human somatostatin receptor subtype 2 (Homo sapiens, UniProt P30874)
Construct: expressed in transfected cells
Sequence (P30874 whole entry): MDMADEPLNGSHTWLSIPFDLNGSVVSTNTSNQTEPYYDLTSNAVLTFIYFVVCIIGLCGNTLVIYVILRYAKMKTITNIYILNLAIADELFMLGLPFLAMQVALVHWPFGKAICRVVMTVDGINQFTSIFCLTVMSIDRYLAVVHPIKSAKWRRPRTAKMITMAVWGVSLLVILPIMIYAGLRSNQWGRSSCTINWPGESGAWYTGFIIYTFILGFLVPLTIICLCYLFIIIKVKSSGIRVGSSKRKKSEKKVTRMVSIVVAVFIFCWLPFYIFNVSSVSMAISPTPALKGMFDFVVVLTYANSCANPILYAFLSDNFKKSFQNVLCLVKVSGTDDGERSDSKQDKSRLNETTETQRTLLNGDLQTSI
ASSAY_REMARKS: Functional assay for SSTR2 agonists (HTRF cAMP)
Assay type: cell-based
DETAILS: CHO-K1 cells stably expressing human SST2; NKH477-stimulated cAMP; 20 min at 37 C; read-out: hSST2 cAMP Avg EC50
Schema: pEC50 number; meaning minus log10 of the concentration expressed in molar units.

Q. I'd like to know its pEC50. The molecule in question is CC[C@H](C)[C@@H]([C@@H](CC(=O)N1CCC[C@H]1[C@H](OC)[C@@H](C)C(=O)N[C@H](C)[C@@H](O)c1ccccc1)OC)N(C)C(=O)[C@@H](NC(=O)[C@H](C(C)C)N(C)C(=O)OCc1ccc(NC(=O)[C@H](CCCNC(N)=O)NC(=O)[C@@H](NC(=O)CCOCCC(=O)NCCNc2ncc(-c3cc(C)cc(F)c3)c(N3CCC(N)CC3)c2-c2nc3ccc(Cl)cc3[nH]2)C(C)C)cc1C(=O)N[C@@H](CCCCNC(=O)CCCCc1ccc(I)cc1)C(=O)O)C(C)C
A. 10.00

Q. I'd like to know its pEC50. The molecule in question is CC[C@H](C)[C@@H]([C@@H](CC(=O)N1CCC[C@H]1[C@H](OC)[C@@H](C)C(=O)N[C@H](C)[C@@H](O)c1ccccc1)OC)N(C)C(=O)[C@@H](NC(=O)[C@H](C(C)C)N(C)C(=O)OCc1ccc(NC(=O)[C@H](CCCNC(N)=O)NC(=O)[C@@H](NC(=O)c2cc(NCCOCCOCCOCCC(=O)NCCNc3ncc(-c4cc(C)cc(F)c4)c(N4CCC(N)CC4)c3-c3nc4ccc(Cl)cc4[nH]3)cc(C(=O)OC)c2)C(C)C)cc1)C(C)C
A. 9.57

Q. I'd like to know its pEC50. The molecule in question is CC[C@H](C)[C@@H]([C@@H](CC(=O)N1CCC[C@H]1[C@H](OC)[C@@H](C)C(=O)N[C@H](C)[C@@H](O)c1ccccc1)OC)N(C)C(=O)[C@@H](NC(=O)[C@H](C(C)C)N(C)C(=O)OCc1ccc(NC(=O)[C@H](CCCNC(N)=O)NC(=O)[C@@H](NC(=O)c2cc(OCCOCCC(=O)NCCNc3ncc(-c4cc(C)cc(F)c4)c(N4CCC(N)CC4)c3-c3nc4ccc(Cl)cc4[nH]3)cc(C(=O)NCC(=O)O)c2)C(C)C)cc1)C(C)C
A. 9.60

Q. I'd like to know its pEC50. The molecule in question is CC[C@H](C)[C@@H]([C@@H](CC(=O)N1CCC[C@H]1[C@H](OC)[C@@H](C)C(=O)N[C@H](C)[C@@H](O)c1ccccc1)OC)N(C)C(=O)[C@@H](NC(=O)[C@H](C(C)C)N(C)C(=O)OCc1ccc(NC(=O)[C@H](C)NC(=O)[C@@H](NC(=O)CCOCCC(=O)N(C)CC(=O)NCCNc2ncc(-c3cc(C)cc(F)c3)c(N3CCC(N)CC3)c2-c2nc3ccc(Cl)cc3[nH]2)C(C)C)c(O[C@@H]2O[C@H](C(=O)O)[C@@H](O)[C@H](O)[C@H]2O)c1)C(C)C
A. 9.96

Q. I'd like to know its pEC50. The molecule in question is CC[C@H](C)[C@@H]([C@@H](CC(=O)N1CCC[C@H]1[C@H](OC)[C@@H](C)C(=O)N[C@H](C)[C@@H](O)c1ccccc1)OC)N(C)C(=O)[C@@H](NC(=O)[C@H](C(C)C)N(C)C(=O)OCc1ccc(NC(=O)[C@H](CCCNC(N)=O)NC(=O)[C@@H](NC(=O)c2cc(NC(=O)CCOCCn3cc(CCC(=O)NCCNc4ncc(-c5cc(C)cc(F)c5)c(N5CCC(N)CC5)c4-c4nc5ccc(Cl)cc5[nH]4)nn3)cc(C(=O)NCC(=O)O)c2)C(C)C)cc1)C(C)C
A. 9.36

Q. I'd like to know its pEC50. The molecule in question is CC[C@H](C)[C@@H]([C@@H](CC(=O)N1CCC[C@H]1[C@H](OC)[C@@H](C)C(=O)N[C@H](C)[C@@H](O)c1ccccc1)OC)N(C)C(=O)[C@@H](NC(=O)[C@H](C(C)C)N(C)C(=O)OCc1ccc(NC(=O)[C@H](CCCNC(N)=O)NC(=O)[C@@H](NC(=O)c2ccc(NC(=O)CCOCCOCCOCCOCCC(=O)NCCNc3ncc(-c4cc(C)cc(F)c4)c(N4CCC(N)CC4)c3-c3nc4ccc(Cl)cc4[nH]3)cc2O[C@@H]2OC(C(=O)O)[C@@H](O)[C@H](O)[C@H]2O)C(C)C)cc1)C(C)C (stereo partly drawn)
A. 10.13

Q. I'd like to know its pEC50. The molecule in question is CC[C@H](C)[C@@H]([C@@H](CC(=O)N1CCC[C@H]1[C@H](OC)[C@@H](C)C(=O)N[C@H](C)[C@@H](O)c1ccccc1)OC)N(C)C(=O)[C@@H](NC(=O)[C@H](C(C)C)N(C)C(=O)OCc1ccc(NC(=O)[C@H](CCCNC(N)=O)NC(=O)[C@@H](NC(=O)[C@@H](CS(=O)(=O)O)NC(=O)CCOCCC(=O)NCCNc2ncc(-c3cc(C)cc(F)c3)c(N3CCC(N)CC3)c2-c2nc3ccc(Cl)cc3[nH]2)C(C)C)cc1C(=O)N1CC(C(=O)O)C1)C(C)C
A. 10.04

Q. I'd like to know its pEC50. The molecule in question is CC[C@H](C)[C@@H]([C@@H](CC(=O)N1CCC[C@H]1[C@H](OC)[C@@H](C)C(=O)N[C@H](C)[C@@H](O)c1ccccc1)OC)N(C)C(=O)[C@@H](NC(=O)[C@H](C(C)C)N(C)C(=O)OCc1ccc(NC(=O)[C@H](CCCNC(N)=O)NC(=O)[C@@H](NC(=O)c2cc(NCCOCCC(=O)NCCNc3ncc(-c4cc(C)cc(F)c4)c(N4CCC(N)CC4)c3-c3nc4ccc(Cl)cc4[nH]3)cc(C(=O)NC[C@@H](N)C(=O)O)c2)C(C)C)cc1)C(C)C
A. 9.25

Q. I'd like to know its pEC50. The molecule in question is CC[C@H](C)[C@@H]([C@@H](CC(=O)N1CCC[C@H]1[C@H](OC)[C@@H](C)C(=O)N[C@H](C)[C@@H](O)c1ccccc1)OC)N(C)C(=O)[C@@H](NC(=O)[C@H](C(C)C)N(C)C(=O)OCc1ccc(NC(=O)[C@H](CCCNC(N)=O)NC(=O)[C@@H](NC(=O)[C@@H](CCC(=O)O)NC(=O)CCOCCC(=O)NCCNc2ncc(-c3cc(C)cc(F)c3)c(N3CCC(N)CC3)c2-c2nc3ccc(Cl)cc3[nH]2)C(C)C)cc1C(=O)NCCN)C(C)C
A. 9.54
